Molecular target: hGcgR (Homo sapiens)
Test: Functional cAMP activation in the presence of 0.1% casein (no HSA)
Format: cell-based
Conditions: in the presence of 0.1% casein (no HSA); geometric mean; read-out: Relative cAMP EC50, hGcgR
Starred links: 1 amine or outer side, 2 acyl side, 3 side chain; linkers in the order of their positions; H or OH if unused. Non-standard residues stand in square brackets, D forms with d. Groups on a side chain read outwards from the residue. No end group written: not given here. *: point of attachment. C18 diacid = O=C(O)CCCCCCCCCCCCCCCCC(=O)*; γGlu = O=C(O)[C@H](CCC(=O)[*:2])N[*:1]; αMe4Pal = C[C@](N)(Cc1ccncc1)C(=O)O; αMeY = C[C@](N)(Cc1ccc(O)cc1)C(=O)O; 4Pal = N[C@@H](Cc1ccncc1)C(=O)O; αMeL = CC(C)C[C@](C)(N)C(=O)O; Orn = NCCC[C@H](N)C(=O)O; AEEA = NCCOCCOCC(=O)O; Aib = CC(C)(N)C(=O)O
parameter measured: EC50 (nM)
Quick reminder: number only, in nM, skip the unit.

substance	EC50 [nM]
Y[Aib]QGTFTSD[4Pal]SQ[αMeL]LDKK([γGlu-γGlu-C18 diacid])AQ[αMe4Pal]AFIEYLIE[Aib]GPSSGAPPPSGS-NH2 [Example 858]	3.44
H-Y[Aib]QGTFTSD[4Pal]SQ[αMeL]LD[Orn]K([dE-γGlu-C18 diacid])AQ[αMe4Pal]AFIE[αMeY]LIAGGPSSGAPPPSGSEE-NH2 [Example 1074]	22.8
Y[Aib]QGTFTSD[4Pal]S[Orn][αMeL]LD[Orn]K([γGlu-γGlu-C18 diacid])AQ[αMe4Pal]QFIE[αMeY]LIEGGPSSGAPPPSGSEE-NH2 [Example 972]	4.19

Query: Name the recorded EC50 of the substance listed here: H-Y[Aib]QGTFTSD[4Pal]SQ[αMeL]LDKK([AEEA-γGlu-C18 diacid])AQ[αMe4Pal]AFIEYLIE[Aib]GPSSGAPPPSGT-NH2 [Example 834]
Result: 3.36

###

Quick reference for pEC50 among some substances
Target: hGLP-1R (Homo sapiens, UniProt P43220)
Sequence (P43220 24-463): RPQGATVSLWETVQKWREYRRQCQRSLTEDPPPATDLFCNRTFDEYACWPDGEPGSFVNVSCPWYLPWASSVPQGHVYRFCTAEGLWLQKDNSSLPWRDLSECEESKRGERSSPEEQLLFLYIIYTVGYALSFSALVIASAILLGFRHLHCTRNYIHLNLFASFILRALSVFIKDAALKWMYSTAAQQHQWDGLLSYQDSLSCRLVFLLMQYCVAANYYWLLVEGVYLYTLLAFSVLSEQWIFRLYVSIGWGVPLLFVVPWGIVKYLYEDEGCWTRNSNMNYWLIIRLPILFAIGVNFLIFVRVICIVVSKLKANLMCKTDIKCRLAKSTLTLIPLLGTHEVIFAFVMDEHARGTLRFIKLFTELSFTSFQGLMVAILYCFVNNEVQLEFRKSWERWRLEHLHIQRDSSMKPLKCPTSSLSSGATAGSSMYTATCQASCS
Assay: Functional cAMP activity in the presence of 1% HSA
Type: cell-based
Conditions: read-out: cAMP Rel EC50, hGLP-1R
Starred links: 1 amine or outer side, 2 acyl side, 3 side chain; linkers in the order of their positions; H or OH if unused. Non-standard residues stand in square brackets, D forms with d. Groups on a side chain read outwards from the residue. *: point of attachment. C18 diacid = O=C(O)CCCCCCCCCCCCCCCCC(=O)*; αMePhe(2-F) = C[C@](N)(Cc1ccccc1F)C(=O)O; γGlu = O=C(O)[C@H](CCC(=O)[*:2])N[*:1]; αMe4Pal = C[C@](N)(Cc1ccncc1)C(=O)O; αMeY = C[C@](N)(Cc1ccc(O)cc1)C(=O)O; 4Pal = N[C@@H](Cc1ccncc1)C(=O)O; αMeL = CC(C)C[C@](C)(N)C(=O)O; αMeS = C[C@](N)(CO)C(=O)O; Orn = NCCC[C@H](N)C(=O)O; AEEA = NCCOCCOCC(=O)O; Aib = CC(C)(N)C(=O)O
Reminder that pEC50 means the negative base-10 logarithm of the concentration expressed in mol/L.

// worked examples, pEC50 included
substance	pEC50
H-Y[Aib]QGT[αMePhe(2-F)]TSD[4Pal][αMeS]I[αMeL]LD[Orn]K([AEEA-γGlu-C18 diacid])AQ[αMe4Pal]EFI[dE][αMeY]LIEGGPSSGEPPPEGGGE-NH2 [Example 760]	7.36
H-Y[Aib]QGTFTSDFS[Orn][αMeL]LDKK([AEEA-γGlu-C18 diacid])AQ[Aib]AFIEYLLAGGPSSGEPPPEGS-NH2 [Example 152]	6.31

Query: Name the recorded pEC50 of the substance listed here: H-Y[Aib]QGT[αMePhe(2-F)]TSD[4Pal][αMeS]I[αMeL]LD[Orn]K([AEEA-γGlu-C18 diacid])AQ[αMe4Pal]EFI[dE][αMeY]LIEGGPPS[Aib]EPPPSGSE-NH2 [Example 1200]
Result: 7.04

###

Quick reference for pEC50 among some substances
Target: hGcgR (Homo sapiens, UniProt P47871)
Sequence (P47871 26-477): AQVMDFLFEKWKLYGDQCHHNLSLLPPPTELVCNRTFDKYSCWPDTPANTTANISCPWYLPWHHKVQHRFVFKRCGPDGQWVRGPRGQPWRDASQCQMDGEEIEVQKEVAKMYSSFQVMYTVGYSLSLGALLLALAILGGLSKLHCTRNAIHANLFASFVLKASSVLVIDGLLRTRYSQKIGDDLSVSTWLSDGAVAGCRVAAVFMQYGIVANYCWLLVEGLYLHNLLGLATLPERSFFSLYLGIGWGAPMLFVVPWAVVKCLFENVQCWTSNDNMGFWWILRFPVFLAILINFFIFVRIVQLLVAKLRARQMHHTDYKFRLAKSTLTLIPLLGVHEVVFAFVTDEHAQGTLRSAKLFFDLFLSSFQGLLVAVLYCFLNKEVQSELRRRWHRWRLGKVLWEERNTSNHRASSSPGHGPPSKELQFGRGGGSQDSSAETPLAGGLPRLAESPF
Experiment: Functional cAMP activation in the presence of 0.1% casein (no HSA);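 for Relative cAMP EC50, hGcgR: intracellular cAMP rise after 30 min at 37 °C, read by HTRF against a cAMP standard curve, scaled from buffer only (0%) to maximal control ligand response (100%)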
Assay type: cell-based
Details: in the presence of 0.1% casein (no HSA); geometric mean; read-out: Relative cAMP EC50, hGcgR
Starred links: 1 amine or outer side, 2 acyl side, 3 side chain; linkers in the order of their positions; H or OH if unused. Non-standard residues stand in square brackets, D forms with d. Groups on a side chain read outwards from the residue. No end group written: not given here. *: point of attachment. C20 diacid = O=C(O)CCCCCCCCCCCCCCCCCCC(=O)*; C18 diacid = O=C(O)CCCCCCCCCCCCCCCCC(=O)*; αMePhe(2-F) = C[C@](N)(Cc1ccccc1F)C(=O)O; γGlu = O=C(O)[C@H](CCC(=O)[*:2])N[*:1]; NMeY = CN[C@@H](Cc1ccc(O)cc1)C(=O)O; αMe4Pal = C[C@](N)(Cc1ccncc1)C(=O)O; αMeY = C[C@](N)(Cc1ccc(O)cc1)C(=O)O; αMeF = C[C@](N)(Cc1ccccc1)C(=O)O; 4Pal = N[C@@H](Cc1ccncc1)C(=O)O; αMeL = CC(C)C[C@](C)(N)C(=O)O; αMeS = C[C@](N)(CO)C(=O)O; Orn = NCCC[C@H](N)C(=O)O; AEEA = NCCOCCOCC(=O)O; Aib = CC(C)(N)C(=O)O
Reminder that pEC50 means the negative base-10 logarithm of the concentration expressed in mol/L.

// worked examples, pEC50 included
substance	pEC50
H-Y[Aib]QGTFTSDFS[Orn][αMeL]LDKK([AEEA-γGlu-C20 diacid])AQ[Aib]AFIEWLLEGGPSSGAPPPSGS-NH2 [Example 78]	8.15
H-Y[Aib]QGTFTSD[4Pal]SQ[αMeL]LDKK([dE-dE-γGlu-C18 diacid])AQ[αMe4Pal]AFIEYLIE[Aib]GPSSGAPPPSGS-NH2 [Example 921]	7.98
H-[NMeY][Aib]QGT[αMeF]TSDYSILLDKIAAK([AEEA-AEEA-γGlu-C20 diacid])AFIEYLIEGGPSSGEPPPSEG-NH2 [Example 299]	8.60
Y[Aib]QGT[αMePhe(2-F)]TSD[4Pal][αMeS]I[αMeL]LD[Orn]K([γGlu-γGlu-C18 diacid])AQ[αMe4Pal]EFI[dE][αMeY]LVEGGPSSGAPPPSGSE-NH2 [Example 1162]	8.59

Query: Name the recorded pEC50 of the substance listed here: H-Y[Aib]QGTFTSD[4Pal]SQ[αMeL]LDKK([γGlu-γGlu-C18 diacid])AQ[αMe4Pal]AFIE[αMe4Pal]LIE[Aib]GPSSGEPPPSGSEE-NH2 [Example 1125]
Result: 8.23

Query: Name the recorded pEC50 of the substance listed here: Y[Aib]QGTFTSD[4Pal]SQ[αMeL]LD[Orn]K([γGlu-γGlu-C18 diacid])AQ[αMe4Pal]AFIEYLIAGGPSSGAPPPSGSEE-NH2 [Example 1031]
Result: 8.16

Query: Name the recorded pEC50 of the substance listed here: H-Y[Aib]QGTFTSDYSI[αMeL]LD[Orn]QAAK([AEEA-AEEA-γGlu-C20 diacid])QFVEWLLA[Aib]GPSSGEPPPSEG-NH2 [Example 328]
Result: 7.99

Query: Name the recorded pEC50 of the substance listed here: Y[Aib]QGTFTSD[4Pal]SR[αMeL]LDKK([γGlu-γGlu-C18 diacid])AQ[αMe4Pal]AFIE[αMe4Pal]LIEGGPSSGAPPPSGSEE-NH2 [Example 959]
Result: 8.58

Query: Name the recorded pEC50 of the substance listed here: H-Y[Aib]QGTFTSD[4Pal]S[Orn][αMeL]LDKK([γGlu-γGlu-C18 diacid])AQ[αMe4Pal]AFIEYLIAGGPSSGEPPPSGTEEE-NH2 [Example 982]
Result: 8.41

###

Quick reference for pEC50 among some substances
Target: hGIPR (Homo sapiens, UniProt P48546)
Sequence (P48546 22-466): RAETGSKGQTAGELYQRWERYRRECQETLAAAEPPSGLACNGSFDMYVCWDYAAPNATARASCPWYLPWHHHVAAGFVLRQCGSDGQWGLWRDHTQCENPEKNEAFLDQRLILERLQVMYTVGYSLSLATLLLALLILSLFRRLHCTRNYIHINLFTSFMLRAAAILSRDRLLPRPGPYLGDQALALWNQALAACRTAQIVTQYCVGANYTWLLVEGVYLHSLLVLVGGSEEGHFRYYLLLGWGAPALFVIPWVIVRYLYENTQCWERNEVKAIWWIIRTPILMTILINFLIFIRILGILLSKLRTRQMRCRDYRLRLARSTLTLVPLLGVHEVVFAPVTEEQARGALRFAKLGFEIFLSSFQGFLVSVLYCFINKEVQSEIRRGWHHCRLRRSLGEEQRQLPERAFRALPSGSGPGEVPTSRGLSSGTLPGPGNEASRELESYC
Test: Functional cAMP activation in the presence of 0.1% casein (no HSA);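 note: intracellular cAMP rise after 30 min at 37 °C read by HTRF against a standard curve, scaled between buffer alone (0%) and top control ligand concentration (100%), four-parameter fit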
Assay type: cell-based
Conditions: in the presence of 0.1% casein (no HSA); geometric mean; read-out: Relative cAMP EC50, hGIPR
Starred links: 1 amine or outer side, 2 acyl side, 3 side chain; linkers in the order of their positions; H or OH if unused. Non-standard residues stand in square brackets, D forms with d. Groups on a side chain read outwards from the residue. No end group written: not given here. *: point of attachment. C18 diacid = O=C(O)CCCCCCCCCCCCCCCCC(=O)*; γGlu = O=C(O)[C@H](CCC(=O)[*:2])N[*:1]; αMe4Pal = C[C@](N)(Cc1ccncc1)C(=O)O; 4Pal = N[C@@H](Cc1ccncc1)C(=O)O; αMeL = CC(C)C[C@](C)(N)C(=O)O; Orn = NCCC[C@H](N)C(=O)O; Dab = NCC[C@H](N)C(=O)O; AEEA = NCCOCCOCC(=O)O; Aib = CC(C)(N)C(=O)O
Reminder that pEC50 means the negative base-10 logarithm of the concentration expressed in mol/L.

substance	pEC50
H-Y[Aib]QGTFTSD[4Pal]S[Dab][αMeL]LDKK([AEEA-γGlu-C18 diacid])AQ[Aib]AFIEYLIE[Aib]GPSSGAPPPSGS-NH2 [Example 803]	9.63
H-Y[Aib]QGTFTSD[4Pal]SQ[αMeL]LD[Orn]K([γGlu-γGlu-C18 diacid])AQ[αMe4Pal]AFIEYLIE[dA]GPSSGAPPPSGS-NH2 [Example 1017]	9.64
Y[Aib]QGTFTSD[4Pal]SQ[αMeL]LDKK([γGlu-dE-dE-C18 diacid])AQ[αMe4Pal]AFIEYLIE[Aib]GPSSGAPPPSGSEE-NH2 [Example 930]	9.61
Y[Aib]QGTFTSDFS[Orn][αMeL]LDKK([AEEA-γGlu-C18 diacid])AQ[Aib]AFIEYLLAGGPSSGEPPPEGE-NH2 [Example 98]	9.75

We now examine a further substance.
Query: Name the recorded pEC50 of the substance listed here: H-Y[Aib]QGTFTSD[4Pal]SK[αMeL]LDKK([AEEA-γGlu-C18 diacid])AQ[Aib]AFIEYLIE[Aib]GPSSGAPPPSGSE-NH2 [Example 901]
Result: 9.77
